Tested on: NCI/ADR-RES ovarian
test.name: NCI-60 one-dose screen, 48 h (100 = growth as untreated, 0 = no growth, -100 = all killed)
setup.conditions: 10 µM unless noted
About 83,000 compounds went through this panel and 20% of them were active in at least one assay; those are over-represented in the sample as a whole.
quantity.name: growth (%)
One number for each entry, in %.

| molecule | assayed.target | quantity.name | obs.value |
| --- | --- | --- | --- |
| Clc1nc(Cl)c2ncn(CC3(Cn4cnc5c(Cl)nc(Cl)nc54)COC3)c2n1 | NCI/ADR-RES ovarian | growth | -57.4 |

Would you mind giving growth for every molecule in the list below?
1. N#Cc1c(Nc2ccccc2)nn2cc(-c3nc4ccccc4s3)c(N)nc12
2. Cc1ccc(C(c2c(O)c3cc(Br)ccc3[nH]c2=O)c2c(O)c3cc(Br)ccc3[nH]c2=O)cc1
3. CC(=O)N1N=C(c2cccc(Nc3ccncc3)c2)CC1c1ccc2c(c1)OCO2 (stereo not drawn)
4. COc1ccc(CNCCN2C(=O)c3ccc4c5c(ccc(c35)C2=O)C(=O)N(CCNCc2ccc(OC)cc2)C4=O)cc1
5. Cc1ccccc1C(c1ccccc1)c1ccccc1C
6. C[C@]12C[C@H]1CC[C@]1(C)[C@@H]2CC[C@@]23C[C@H](CC[C@H]21)[C@@](O)(CO)C3
7. ClCC1(Cn2cnc3c(Cl)nc(Cl)nc32)COC1
8. CC1=CC2(C)/C=C(C)/C=C\CC(O)/C=C3/C=CC(=C4C(=O)OC2(CC1C)C4=O)OC3 (stereo not drawn)

1. 50.6
2. 101
3. 97.2
4. -25.9
5. 104
6. 97.7
7. 106
8. -61.8

Would you mind giving growth for every molecule in the list below?
1. CCCCCCCCOc1ccc(/C=N/Nc2cc(C)nc3ccc(Cl)cc23)cc1
2. COc1cc2nc(-c3ccc(C(F)(F)F)cc3)cc(OCCCN3CCC(O)CC3)c2cc1OC
3. Cc1[nH]n(-c2cccc(Cl)c2)c(=O)c1/C=C1\C=Nc2ccc(Br)cc21
4. CCCCCOc1ccc(/C=N/Nc2cc(C)nc3ccc(Br)cc23)cc1
5. CC1(C)[C@H](O)CC[C@]2(C)[C@@H]1CC[C@@]13C[C@@H](CC[C@H]12)[C@@](O)(CO)C3
6. Fc1ccc(C2CC(c3cccc(Nc4ccncc4)c3)=NN2c2ccc(Cl)cc2)cc1 (stereo not drawn)

[-22, 37.6, 16.3, 63.6, 106, 66.8]

* * *

Record form. Attribute: growth. Fill in for each entry.
System: MDA-MB-231 breast
test.name: NCI-60 one-dose screen, 48 h (100 = growth as untreated, 0 = no growth, -100 = all killed)
setup.conditions: 10 µM unless noted
About 83,000 compounds went through this panel and 20% of them were active in at least one assay; those are over-represented in the sample as a whole.
One number for each entry, in %.

| compound | growth [%] |
| --- | --- |
| COc1cc(C2CC(c3cccc(Nc4ccncc4)c3)=NN2c2ccc(Cl)cc2)cc(OC)c1OC (centres undefined) | 24.8 |
| C=C(C)[C@@H]1CC[C@]2(C(=O)NCC(=O)OC)CC[C@]3(C)[C@H](CC[C@@H]4[C@@]5(C)Cc6c([nH]c7ccccc67)C(C)(C)[C@@H]5CC[C@]43C)[C@@H]12 | 82.2 |
| CC1(c2ccccc2)NC(=O)N(CC(=O)Nc2cccc(I)c2)C1=O (centres undefined) | 75 |
| CCOC(=O)C1CC(=O)c2cc(OC)c(OC)cc2C1 (centres undefined) | 110 |
| COc1ccccc1-c1c(-c2ccc(Cl)cc2)c2cc3c(cc2[nH]c1=O)OCCO3 | 95.5 |

Would you mind giving growth for every compound in the list below?
1. COc1cc(C(=O)/C=C/c2c(C)n([O-])c3ccc(Cl)cc3[n+]2=O)cc(OC)c1OC
2. CN1CCN(c2ccc3nc(-c4cc(C(C)(C)C)c(O)c(C(C)(C)C)c4)[nH]c3c2)CC1
3. CC(=O)[C@@H]1CC[C@]2(C(N)=O)CC[C@]3(C)[C@H](CC[C@@H]4[C@@]5(C)CCC(=O)C(C)(C)[C@@H]5CC[C@]43C)[C@@H]12
4. FC(F)(F)c1cccc(Nc2ccccc2)c1

1: 81; 2: 38.6; 3: 95.8; 4: 104
